For each of the molecules below, state its LD50 at 168 h.
Experiment: Acute oral toxicity in mice
Conditions: mouse, in vivo, mortality 7 days after administration

{"columns": ["MOLECULE", "LD50 at 168 h"],
 "data": [
  ["CCC(=O)N1CCC(=NO)c2cc(Cl)ccc21 [Compound II]", "3490 mg/kg"],
  ["O=C(Cc1ccccc1)N1CCC(=NO)c2cc(Cl)ccc21 [Compound VII]", "> 5000 mg/kg"],
  ["CC(C)C(=O)N1CCC(=NO)c2cc(Cl)ccc21 [Compound IV]", "> 5000 mg/kg"]
]}

Would you be so kind as to report LD50 at 168 h for each listed record?
1. CN(C)C(=O)N1CCC(=NO)c2cc(Br)ccc21 [XXIII]
2. CCOC(=O)N1CCC(=NO)c2cc(F)ccc21 [Compound XII]
3. CN(C)C(=O)N1CCC(=NO)c2cc(Cl)ccc21 [XXII]
4. CNC(=O)N1CCC(=NO)c2cc(Br)ccc21 [XX]
5. COC(=O)N1CCC(=NO)c2cc(F)ccc21 [IX]
6. COC(=O)N1CCC(=NO)c2cc(Br)ccc21 [Compound XI]
7. O=C(C=Cc1ccccc1)N1CCC(=NO)c2cc(Cl)ccc21 [Compound VIII]

[A]
1: > 5000 mg/kg; 2: > 5000 mg/kg; 3: > 5000 mg/kg; 4: > 5000 mg/kg; 5: > 5000 mg/kg; 6: > 5000 mg/kg; 7: > 5000 mg/kg

Would you be so kind as to report LD50 at 168 h for each listed record?
1. CC(=O)N1CCC(=NO)c2cc(Br)ccc21 [XIV]
2. CNC(=O)N1CCC(=NO)c2cc(Cl)ccc21 [XIX]

[A]
["> 5000 mg/kg", "> 5000 mg/kg"]

Would you be so kind as to report LD50 at 168 h for each listed record?
1. CCCCC(=O)N1CCC(=NO)c2cc(Cl)ccc21 [Compound V]
2. O=C(C=Cc1ccccc1)N1CCC(=NO)c2cc(Br)ccc21 [XVIII]

[A]
["> 5000 mg/kg", "> 5000 mg/kg"]
